B1: CPEB3 Ribozyme (parent)
chain: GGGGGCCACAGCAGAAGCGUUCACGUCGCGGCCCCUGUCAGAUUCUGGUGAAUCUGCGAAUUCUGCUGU

- Variants of: B1
- TEST_NAME: self-cleavage, relative activity (ratio to wild type); higher = more cleavage; co-transcriptional
I'd be grateful if you could share measured self-cleavage for these entries.
Please give the numeric answer without any surrounding text.

self-cleavage for G2A C33U is 0.0941

get_value(item= U21A U44A , readout=self-cleavage) returns 0.901

Item: C35A A59C | self-cleavage: 0.204

Data point: G30A C66U ; self-cleavage = 0.861

The variant listed as G25U G68U has a reported self-cleavage of 0.159

Given item C24A C66A , the value recorded as its self-cleavage is 0.397

Given item C35U U38A , the value recorded as its self-cleavage is 0.901

Record C12G U26C . Reported self-cleavage: 0.74

Entry A13C U53A , self-cleavage reported as 0.579

response.value for C7G U62C (field: self-cleavage) = 0.285

Query G17A U62C yields self-cleavage of 0.193

# variant C33A U44G ; its self-cleavage = 0.374

The variant listed as U38A G58A shows self-cleavage equal to 0.848

Briefly, self-cleavage measured for C35U U46A : 0.907

The variant listed as G1C A42G has a reported self-cleavage of 0.152

Lab book: self-cleavage of U43C C63A noted as 0.619

Lab note: U44A G56C gave self-cleavage of 0.383

The measured self-cleavage associated with A16G C39G reads 0.745

Item: A23U G68U | self-cleavage: 1.03

Entry under test: G5A G50C . Its self-cleavage was 0.902

Lab book: self-cleavage of A15U U26C noted as 0.634

Recorded result, G2A G11U , self-cleavage: 0.117

Cited source for all entries: the RNAGym collection of RNA variant scans (doi:10.7554/elife.80360)
